These data points were gathered from ChEMBL document CHEMBL2169792.

Reported CC50 values for a set of molecules
Experiment: Cytotoxicity against human melanoma cells after 48 hrs by SRB assay
Assay type: functional
Conditions: Melanoma cell, read-out: LC50 (the source's name)
Field format: number, assumed µM, no unit text.

Please review the following examples before continuing.
>  <Molecule>
O=C1N=C(N2N=C(c3ccc4ccccc4c3)CC2c2ccc(Cl)cc2)S/C1=C1/C(=O)Nc2ccccc21 (stereo not given)

>  <CC50 / µM>
83

$$$$
>  <Molecule>
CN(C)c1ccc(C2CC(c3ccccc3)=NN2C2=NC(=O)/C(=C3\C(=O)Nc4ccccc43)S2)cc1 (stereo not given)

>  <CC50 / µM>
43.9

$$$$
>  <Molecule>
Cc1ccc2c(c1)/C(=C1\SC(N3N=C(c4ccccc4)CC3c3ccc(Cl)cc3)=NC1=O)C(=O)N2 (stereo not given)

>  <CC50 / µM>
100

$$$$
>  <Molecule>
CN(C)c1ccc(C2CC(c3ccccc3)=NN2C2=NC(=O)/C(=C3\C(=O)Nc4ccc(Br)cc43)S2)cc1 (stereo not given)

>  <CC50 / µM>
7.65

$$$$

We now examine a further molecule.
response.value for COc1ccc(C2CC(c3ccc4ccccc4c3)=NN2C2=NC(=O)/C(=C3\C(=O)Nc4ccccc43)S2)cc1 (stereo not given) (field: CC50) = 64.1
